Tested on: NCI-H522 lung
Test: NCI tumour cell line growth inhibition, 48 h
Please go through the items and note down their TGI.

Param readout= TGI; system= NCI-H522 lung; entry= CCCCCCCCCCCCCCCCOC[C@H](COC(c1ccccc1)(c1ccccc1)c1ccccc1)O[P+](=S)OC (stereo partly drawn) ; returns value.
> 100 µM

Test system NCI-H522 lung; read-out TGI; what value for COC(=O)[C@]1(c2cc3ccccc3[nH]2)CC2CNC1C1OC(C)(C)OC21 (stereo partly drawn) ?
> 100 µM

NCI-H522 lung / TGI / `CC(C)(C)C(=O)C(N)C(=O)C(C)(C)C` : value?
> 100 µM

----------
Test system: MCF7 breast
Assay: NCI tumour cell line growth inhibition, 48 h
Answer each item with its documented TGI.

I am curious: what TGI value has been reported for `c1ccc2[nH]c(-c3cscn3)nc2c1` ?
> 100 µM

Which TGI reading was recorded for the compound Nc1ncnc2c1ncn2C1C(O)C=C(CO)C1O (stereo not drawn) ?
> 625 µM

What does the data say about its TGI? Entry: CC(=O)O[C@H]1C(=O)[C@@]2(C)C([C@H](OC(=O)c3ccccc3)[C@]3(O)C[C@H](OC(=O)[C@H](O)[C@@H](NC(=O)c4ccc(Cl)cc4)c4ccccc4)C(C)=C1C3(C)C)C1(OC(C)=O)CO[C@@H]1C[C@@H]2O (stereo partly drawn)
25 µM

Item under review: COc1ccc(C=C2C(C)=NN(c3cccc(Cl)c3)C23C(Cl)C(=O)N3c2nc3ccccc3s2)cc1 (stereo not drawn) . Reported TGI?
61.4 µM

Reported TGI, compound `COc1ccc2c3c(c4cc(OC)c(OC)cc4c2c1)CN1CCC[C@H]1[C@@H]3O` : ____
> 100 µM

Please report the recorded TGI for `NCC[PH+](c1ccccc1)c1ccccc1.NCC[PH+](c1ccccc1)c1ccccc1.[Cl-].[Pt+4]` .
> 100 µM

Tell me the measured TGI of CCOC(=O)CCC(C(=O)OCC)n1nnc2cc(Nc3c(C)[n+]([O-])c4cc(Cl)ccc4[n+]3[O-])ccc21 (stereo not drawn) , please.
80 µM

I have this compound here, `COc1ccc(-c2nc3sccn3c2/C=C/C(=O)c2cc(OC)c(OC)c(OC)c2)cc1` , and I need its recorded TGI.
> 100 µM

For the compound `c1ccc(-c2nc3ccccc3[nH]2)c(OCCCCCOc2ccccc2-c2nc3ccccc3[nH]2)c1` , what TGI is on record?
7.51 µM

// returns reported TGI for input CC1=NN(C(=O)CC(=O)Nc2cccc(C)c2)C(=O)C1N=Nc1ccc(C(=O)O)cc1 (stereo not drawn)
> 100 µM

Find the recorded TGI belonging to `C[C@]12CC[C@H]3[C@@H](CCC4=C/C(=N/OCCN5CCCCC5)CC[C@@]43C)[C@@H]1CC[C@@H]2O` and report it.
26.8 µM

Data request, read-out TGI, for `CC(C)(C)c1cc(C(C)(C)C)c2sc(=O)oc2c1O`
28 µM

Which TGI value is on record for CCOC(=O)c1c(-c2ccc(Cl)cc2)c(C#N)c(=S)n(C2OC(COC(C)=O)C(OC(C)=O)C(OC(C)=O)C2OC(C)=O)c1C (stereo not drawn) ?
> 100 µM

What value of TGI has been recorded for this entry: `O=[N+]([O-])C(/C=C(\Cl)[N+](=O)[O-])=C(Nc1ccccc1)Nc1ccccc1`
14.6 µM

Value lookup for TGI; key = `COc1ccc(-c2nn(-c3cccc(Cl)c3)cc2-c2c(C#N)c(=O)n3[nH]c(-c4ccc(C)o4)nc3c2C#N)cc1`
> 50 µM

Query: TGI; subject: Nc1c([N+](=O)[O-])ncn1C1OC(CO)C(O)C1O (stereo not drawn)
> 100 µM

Given the compound N#Cc1cc2c(n(C3OC(CO)C(O)C(O)C3O)c1=S)CCC2 (stereo not drawn) , what is its reported TGI?
> 100 µM

// returns reported TGI for input `O=C(NCCNC1=CC(=O)c2nc3ccccc3c3ccnc1c23)c1cnccn1`
> 100 µM
